Target: DCAF1 WD40 domain (residues 1077-1390) (Homo sapiens, UniProt Q9Y4B6)
Construct: DCAF1 WD40 domain (residues 1077-1390)
Sequence (Q9Y4B6 1077-1390): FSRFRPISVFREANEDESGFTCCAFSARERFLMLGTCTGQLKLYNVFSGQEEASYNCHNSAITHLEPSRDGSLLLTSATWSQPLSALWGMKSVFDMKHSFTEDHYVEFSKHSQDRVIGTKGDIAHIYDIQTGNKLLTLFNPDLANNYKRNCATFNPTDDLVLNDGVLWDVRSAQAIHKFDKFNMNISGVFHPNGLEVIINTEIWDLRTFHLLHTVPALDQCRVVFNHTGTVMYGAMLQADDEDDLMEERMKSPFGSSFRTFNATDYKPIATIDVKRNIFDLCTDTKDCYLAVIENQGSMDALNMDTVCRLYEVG
Assay: DCAF1 binding assay by SPR (Biacore 8K+), DCAF1-3 KD
Conditions: 25 °C, read-out: DCAF1-3 SPR (KD)
pKd: −log10 of the molar value.
Measured Metric: pKd

Example entries and their recorded answers appear below.
Molecule | Tested On | Result
Fc1cccc(N2CCCC3(CNc4cnc(N5CCCCC5)cc4N3)C2)c1 (stereo not drawn) | DCAF1 WD40 domain (residues 1077-1390) (Homo sapiens, UniProt Q9Y4B6) | 4.00 to 5.00
COC(=O)C[C@H](NC(=O)c1cn[nH]c1-c1ccccc1F)c1cccc(Cl)c1 | DCAF1 WD40 domain (residues 1077-1390) (Homo sapiens, UniProt Q9Y4B6) | < 3.70
c1ccc([C@H]2CCC[C@@H](Nc3cc(N4CCCCC4)ccn3)C2)cc1 | DCAF1 WD40 domain (residues 1077-1390) (Homo sapiens, UniProt Q9Y4B6) | 4.00 to 5.00

Suppose we examine the molecule Fc1cccc(N2CCC[C@@H](Nc3cc([C@@H]4CCCCN4)ccn3)C2)c1 ; what pKd value has been reported?
< 3.70

Suppose we examine the molecule Fc1cccc(N2CCC[C@@H](Nc3cc(N4CCOCC4)[nH]n3)C2)c1 ; what pKd value has been reported?
< 3.70

Suppose we examine the molecule C=CC(=O)N[C@H]1CCN(c2ccnc(N[C@@H]3CCCN(c4cccc(F)c4)C3)c2)C1 ; what pKd value has been reported?
< 3.70

Suppose we examine the molecule c1cc(N2CCC[C@@H](Nc3nccc(N4CCOCC4)n3)C2)c2cnccc2c1 ; what pKd value has been reported?
< 3.70

---

Target: DCAF1 WD40 domain (residues 1077-1390) (Homo sapiens, UniProt Q9Y4B6)
Construct: DCAF1 WD40 domain (residues 1077-1390)
Assay: DCAF1 binding assay by SPR (Biacore 8K+), DCAF1-3 KD
Conditions: 25 °C, read-out: DCAF1-3 SPR (KD)
pKd: −log10 of the molar value.
Here the recorded pKd is given for each entry.

Example entries and their recorded answers appear below.
Molecule | pKd
Cc1sc2c(c1C)C(c1ccc(Cl)cc1)=N[C@@H](CC(=O)NCCOCCOCCOCCOCCOCCn1ncc(C(=O)N[C@@H](CC(N)=O)c3cccc(Cl)c3)c1-c1ccccc1F)c1nnc(C)n1-2 [I-488] | 4.00 to 5.00
Fc1ccc(N2CCC[C@@H](Nc3cc(N4CCOCC4)ccn3)C2)cc1F | 4.00 to 5.00
c1ccc(Cc2ccc(N3CCC[C@@H](Nc4cc(N5CCOCC5)ccn4)C3)nc2)cc1 | < 3.70
Fc1cccc(N2CCC[C@@H](Nc3cc([C@@H]4CCCCO4)ccn3)C2)c1 | < 3.70
Cc1cc(CCCOCCOCCOCCOCCOCCN)cc(F)c1-c1c(C(=O)N[C@@H](CC(N)=O)c2cccc(Cl)c2)c[nH]c1C#N | > 5.00
Cc1c(F)ccc(F)c1-c1[nH]ncc1C(=O)N[C@@H](c1cccc(Cl)c1)[C@@H]1CCCS1(=O)=O | > 5.00

Here's the next entry for you.
Suppose we examine the molecule CC(C)Oc1cncc(N2CCC[C@@H](Nc3cc(N4CCOCC4)ccn3)C2)c1 ; what pKd value has been reported?
3.70 to 4.00
